Experimental target: Ubiquitin carboxyl-terminal hydrolase 17-like protein 5 (Homo sapiens) (UniProt A8MUK1)
Sequence (A8MUK1 whole entry, looked up): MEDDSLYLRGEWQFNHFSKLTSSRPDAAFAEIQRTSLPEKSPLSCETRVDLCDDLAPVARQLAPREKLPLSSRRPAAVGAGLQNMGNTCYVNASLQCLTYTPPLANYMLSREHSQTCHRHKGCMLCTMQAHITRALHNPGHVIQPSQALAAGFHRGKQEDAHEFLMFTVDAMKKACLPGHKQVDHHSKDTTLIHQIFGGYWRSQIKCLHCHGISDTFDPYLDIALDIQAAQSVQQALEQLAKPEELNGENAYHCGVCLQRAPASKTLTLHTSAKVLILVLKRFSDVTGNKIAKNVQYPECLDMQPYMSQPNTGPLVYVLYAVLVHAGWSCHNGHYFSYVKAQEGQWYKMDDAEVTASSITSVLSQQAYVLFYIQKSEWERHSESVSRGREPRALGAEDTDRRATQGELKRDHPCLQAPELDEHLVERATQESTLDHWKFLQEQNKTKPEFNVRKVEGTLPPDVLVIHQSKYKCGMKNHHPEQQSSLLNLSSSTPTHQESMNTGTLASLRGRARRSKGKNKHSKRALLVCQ
Experiment description: ubiquitin-specific protease 17 DUB inhibitors, concentration-effect assay, cell-free, verification of initial screening actives (AID 1645864)
Condition description: purified USP17, ubiquitin-rhodamine cleavage fluorescence, 3 h
The source made the active and inactive calls.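 How the source made its calls: active means maximal inhibition of USP17 at or above 30% in the confirmation dose-response, a value not among the printed readouts; inactive means the rest.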
A correct response names exactly one class from 1.0 = active, 0.0 = inactive

See these solved cases before continuing.
>  <Compound structure string>
Cc1cc(C)c2c(-n3cccc3)c(C(=O)NCCc3ccc(S(N)(=O)=O)cc3)sc2n1

>  <Label class>
0.0

$$$$
>  <Compound structure string>
O=C(Nc1ccccc1Sc1ncc(-c2ccc(Cl)cc2)cn1)c1ccco1

>  <Label class>
1.0

$$$$
>  <Compound structure string>
COc1ccc(-c2cc(-c3ccc(F)cc3)[nH]c(=O)c2C#N)cc1

>  <Label class>
1.0

$$$$

How was "Cc1ccc(NC(=O)c2ccn(COc3ccc(F)cc3)n2)nc1" classified in this test?
1.0

How was "CCn1ccc2c(cc(C(=O)Nc3cc(F)ccc3F)n2C)c1=O" classified in this test?
0.0

----------
Experimental target: UniProt A8MUK1
Experiment description: ubiquitin-specific protease 17 DUB inhibitors, concentration-effect assay, cell-free, verification of initial screening actives (AID 1645864)
Condition description: purified USP17, ubiquitin-rhodamine cleavage fluorescence, 3 h
Active and inactive are the calls of the source.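 Rule for the calls: active = maximal inhibition of USP17 at or above 30% in the confirmation dose-response, a value not among the printed readouts; inactive = the rest.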
Value kind: IC50

>  <Compound>
O=C(Nc1ccc2ccccc2n1)c1ccc(Cl)cc1

>  <IC50>
2.19 µM

$$$$

// batch mode: one IC50 value per listed entry
1. COc1ccc(NC(=O)CSc2nnc(Cc3cccc4ccccc34)n2C)cc1
2. CC(C(=O)NCc1ccc(F)cc1)n1cccc1C(=O)c1ccccc1 (stereo unspecified)
3. Cc1nc(-c2cccc(NC(=O)C3CCN(c4ccccc4)C3=O)c2)no1 (stereo unspecified)

["> 50 µM (inactive)", "> 50 µM (inactive)", "37.2 µM"]

----------
Experimental target: Ubiquitin carboxyl-terminal hydrolase 17-like protein 5 (Homo sapiens)
Experiment description: ubiquitin-specific protease 17 DUB inhibitors, concentration-effect assay, cell-free, verification of initial screening actives (AID 1645864)
Condition description: purified USP17, ubiquitin-rhodamine cleavage fluorescence, 3 h
Active and inactive are the calls of the source.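 How the source made its calls: active means maximal inhibition of USP17 at or above 30% in the confirmation dose-response, a value not among the printed readouts; inactive means the rest.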
A correct response names exactly one class from yes = active, no = inactive

>  <Compound>
CCCCn1c(=O)c(CCC(=O)OCC(=O)Nc2ccc3c(c2)OCCO3)nc2ccccc21

>  <Label class>
no

$$$$
>  <Compound>
Cc1cnnn1-c1ccc(C(=O)Nc2cc(Cl)ccc2Cl)cc1

>  <Label class>
yes

$$$$
>  <Compound>
O=C(c1ccco1)N1CCCC2(C1)Nc1cccnc1NC2=NC1CCCC1 (stereo unspecified)

>  <Label class>
no

$$$$
>  <Compound>
COc1ccc(-c2ccnc(-c3ccc(OCc4cccc(F)c4)cc3)n2)cc1

>  <Label class>
yes

$$$$
>  <Compound>
O=C(COc1ccc2ccccc2c1)Nc1cccc2ccccc12

>  <Label class>
yes

$$$$

How was "CC1=C(c2ccc(C)c(C)c2)S(=O)(=O)NC1=NCC(=O)NCCCc1ccccc1" classified in this test?
yes

How was "Cc1ccccc1Cc1nc(-c2ccc(=O)[nH]c2)no1" classified in this test?
no

How was "Cc1c(CC(=O)Nc2nn[nH]n2)c(=O)oc2cc3c(cc12)CCC1(CCCCC1)O3" classified in this test?
no

How was "C[C@@H](C(=O)NCc1ccc(F)cc1)N1C(=O)N2CCc3c([nH]c4ccccc34)[C@@]2(C)C1=O" classified in this test?
yes

How was CC(c1ccccc1)c1nc(-c2ccc(=O)[nH]c2)no1 (stereo unspecified) classified in this test?
no

How was "COc1ccc(-c2cc3c(=O)n(CC(=O)Nc4ccccc4Cl)ccn3n2)cc1" classified in this test?
yes

How was "Cc1ccc(Cn2nnc(-c3noc(-c4ccc[nH]4)n3)c2C)cc1" classified in this test?
no
